meta.source: ChEMBL document CHEMBL1128242

Test system: Rattus norvegicus
test.description: Distribution of radioactivity was determined in liver at 24 hr after intravenous administration of 1,3-Disubstituted Triacylglycerols in rats
Format: ADME, organism-based
experimental.setup: in vivo
parameter: Distribution of radioactivity (% dose/organ)

The examples below pair each entry with its known result.
> print(dat)
                                   compound  target.or.test.system                      parameter  quantitative.result
1  CCCCCCCC/C=C/CCCCCCCC(=O)OC(COC(=O)CCCCCc1c(I)cc(I)c(N)c1I)COC(=O)CCCCCc1c(I)cc(I)c(N)c1I      Rattus norvegicus  Distribution of radioactivity                 34.9
2  CCCCCCCC/C=C/CCCCCCCC(=O)OC(COC(=O)Cc1c(I)cc(I)c(N)c1I)COC(=O)Cc1c(I)cc(I)c(N)c1I      Rattus norvegicus  Distribution of radioactivity                 72.5

1 = CCCCCCCC/C=C/CCCCCCCC(=O)OC(COC(=O)CCCCCCc1c(I)cc(I)c(N)c1I)COC(=O)CCCCCCc1c(I)cc(I)c(N)c1I
2 = CCCCCCCC/C=C/CCCCCCCC(=O)OC(COC(=O)C(CC)Cc1c(I)cc(I)c(N)c1I)COC(=O)C(CC)Cc1c(I)cc(I)c(N)c1I (stereo not given)
3 = CCCCCCCC/C=C/CCCCCCCC(=O)OC(COC(=O)CCCCc1c(I)cc(I)c(N)c1I)COC(=O)CCCCc1c(I)cc(I)c(N)c1I
## Task Falling order of Distribution of radioactivity, please. Lab note: final answer is the ordered label list.
## Result 2, 3, 1
(2: 77 % dose/organ, 3: 36.1 % dose/organ, 1: 9.6 % dose/organ)

###

Test system: Rattus norvegicus
test.description: Distribution of radioactivity was determined in blood at 48 hr after intravenous administration of 1,3-Disubstituted Triacylglycerols in rats
Type: ADME, organism-based
experimental.setup: in vivo
parameter: Distribution of radioactivity (% dose per organ)

> print(dat)
                                   compound  target.or.test.system       unit.abbrev  quantitative.result
1  CCCCCCCC/C=C/CCCCCCCC(=O)OC(COC(=O)CCCCCCc1c(I)cc(I)c(N)c1I)COC(=O)CCCCCCc1c(I)cc(I)c(N)c1I      Rattus norvegicus  % dose per organ                  0.4

a = CCCCCCCC/C=C/CCCCCCCC(=O)OC(COC(=O)CCCCc1c(I)cc(I)c(N)c1I)COC(=O)CCCCc1c(I)cc(I)c(N)c1I
b = CCCCCCCC/C=C/CCCCCCCC(=O)OC(COC(=O)Cc1c(I)cc(I)c(N)c1I)COC(=O)Cc1c(I)cc(I)c(N)c1I
## Task Return label of the item with the larger Distribution of radioactivity. Candidates: a , b . Please indicate the selected item by its label.
## Result a
(a: 0.7 % dose per organ, b: 0.1 % dose per organ)

a = CCCCCCCC/C=C/CCCCCCCC(=O)OC(COC(=O)C(CC)Cc1c(I)cc(I)c(N)c1I)COC(=O)C(CC)Cc1c(I)cc(I)c(N)c1I (stereo not given)
b = CCCCCCCC/C=C/CCCCCCCC(=O)OC(COC(=O)CCCCCc1c(I)cc(I)c(N)c1I)COC(=O)CCCCCc1c(I)cc(I)c(N)c1I
## Task Given the two records a and b , choose the one whose Distribution of radioactivity value is lower. Could you answer with the label of the item you picked?
## Result a
